Readings of pIC50 for the listed molecules
- TARGET SYSTEM: UniProt Q06187
- Sequence (Q06187 whole entry): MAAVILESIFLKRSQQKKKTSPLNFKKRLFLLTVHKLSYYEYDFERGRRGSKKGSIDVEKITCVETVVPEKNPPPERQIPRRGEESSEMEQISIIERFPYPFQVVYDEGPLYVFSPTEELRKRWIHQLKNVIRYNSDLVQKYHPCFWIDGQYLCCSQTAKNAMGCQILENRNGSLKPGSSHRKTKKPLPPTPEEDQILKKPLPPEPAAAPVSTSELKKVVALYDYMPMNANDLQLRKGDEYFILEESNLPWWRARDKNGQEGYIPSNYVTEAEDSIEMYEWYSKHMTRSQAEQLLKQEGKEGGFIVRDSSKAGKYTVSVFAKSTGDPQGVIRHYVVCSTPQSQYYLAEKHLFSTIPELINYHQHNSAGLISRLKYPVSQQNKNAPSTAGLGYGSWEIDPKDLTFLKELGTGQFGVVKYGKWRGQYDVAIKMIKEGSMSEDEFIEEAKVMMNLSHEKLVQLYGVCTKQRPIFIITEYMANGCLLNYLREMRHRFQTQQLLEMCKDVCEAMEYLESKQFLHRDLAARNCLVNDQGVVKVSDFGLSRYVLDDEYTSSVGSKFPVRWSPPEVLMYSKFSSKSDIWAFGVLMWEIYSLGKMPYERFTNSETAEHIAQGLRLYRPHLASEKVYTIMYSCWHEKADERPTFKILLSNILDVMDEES
- TEST SETTINGS: read-out: BTK IC50
pIC50: −log10 of the molar value.

Query: Param item = CN1CCN(CCCn2c(=O)c(-c3c(F)cccc3F)cc3cnc(Nc4ccc(F)cn4)cc32)CC1 ; retrieve measured pIC50.
Result: > 7.00

Query: Then what about the molecule CN(C)CCCn1c(=O)c(-c2c(F)cccc2F)cc2cnc(Nc3ccc(F)cn3)cc21 ?
Result: > 7.00

----------
The entries below come with measured pIC50 values attached.
- TARGET SYSTEM: Src (Homo sapiens (Human), UniProt P12931)
- Sequence (P12931 whole entry, looked up): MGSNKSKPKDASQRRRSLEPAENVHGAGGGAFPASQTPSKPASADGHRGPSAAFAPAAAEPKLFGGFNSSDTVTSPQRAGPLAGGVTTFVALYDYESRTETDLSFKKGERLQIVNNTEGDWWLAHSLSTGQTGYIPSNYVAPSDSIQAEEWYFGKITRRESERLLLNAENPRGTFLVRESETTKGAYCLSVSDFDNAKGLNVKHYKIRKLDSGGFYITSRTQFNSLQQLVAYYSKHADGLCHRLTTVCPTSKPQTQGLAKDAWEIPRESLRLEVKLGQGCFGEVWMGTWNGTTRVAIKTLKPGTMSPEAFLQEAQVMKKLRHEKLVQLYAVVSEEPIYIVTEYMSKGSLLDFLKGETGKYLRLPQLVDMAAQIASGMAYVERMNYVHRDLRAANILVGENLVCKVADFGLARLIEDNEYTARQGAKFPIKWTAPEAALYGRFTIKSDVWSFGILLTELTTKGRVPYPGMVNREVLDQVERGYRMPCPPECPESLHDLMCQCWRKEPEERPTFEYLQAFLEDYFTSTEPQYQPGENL
- TEST NAME: biochemical
pIC50: −log10 of the molar value.

Below are worked cases with known answers.
Query: I'd like to know its pIC50. The molecule in question is CCN(CC)CCOc1ccc(Nc2cc3c(cn2)cc(C(C)C)c(=O)n3CC)nc1
Result: 6.00 to 7.00

Query: Proceed to CCn1c(=O)c(C#CC(C)(C)C)cc2cnc(Nc3ccc(C)cn3)cc21
Result: 6.00 to 7.00

Query: Similarly, CCn1c(=O)c(C#CC(C)(C)O)cc2cnc(Nc3ccc(C)cn3)cc21 ?
Result: 6.00 to 7.00

Query: How about CCn1c(=O)c(-c2ccccc2)cc2cnc(Nc3nccs3)cc21 ?
Result: 5.30 to 6.00

Query: Ok, now CCn1c(=O)c(-c2ccccc2)cc2cnc(Nc3ccccn3)cc21
Result: 6.00 to 7.00

Query: Also CCN(CC)CCOc1ccc(Nc2cc3c(cn2)cc(-c2c(F)cccc2F)c(=O)n3C2CCOC2)nc1 (single isomer, unassigned) ?
Result: > 7.00

Query: Likewise for CCn1c(=O)c(-c2cc([S+](C)[O-])ccc2F)cc2cnc(Nc3ccc(N(C)C4CCN(C)CC4)cn3)cc21 (centres unmarked) ?
Result: 6.00 to 7.00

Now for a further molecule.
Query: Can you look up the measured pIC50 of CCN(CC)CCOc1ccc(Nc2cc3c(cn2)cc(-c2ccccc2)c(=O)n3C(C)C)nc1 for me?
Result: 6.00 to 7.00
